tested on: AFP+/HLA A2.1+ HepG2; experiment: 4 hour 51Cr-release assay of peptide-generated CTL against HepG2; assay type: cell-based, human; settings: E:T 5:1
Where no end group is shown, it is not given here.
Some sequences, each annotated with its measured AFP+/HLA A2.1+ HepG2 Cytotoxicity.
Kindly write the number and append the unit.

Here is how some sequences turned out for AFP+/HLA A2.1+ HepG2 Cytotoxicity.
Exam item: Find the recorded AFP+/HLA A2.1+ HepG2 Cytotoxicity belonging to FMNKFIYEI [AFP5] and report it.
Marked response: 4%

Exam item: Find the recorded AFP+/HLA A2.1+ HepG2 Cytotoxicity belonging to NLVKQKPQI [AFP23] and report it.
Marked response: 2%

Exam item: Find the recorded AFP+/HLA A2.1+ HepG2 Cytotoxicity belonging to KQEFLINLV [AFP37] and report it.
Marked response: 0%

Exam item: Find the recorded AFP+/HLA A2.1+ HepG2 Cytotoxicity belonging to KLVLDVAHV [AFP4] and report it.
Marked response: 4%

Further cases:
Exam item: Find the recorded AFP+/HLA A2.1+ HepG2 Cytotoxicity belonging to TMKQEFLINL [AFP22] and report it.
Marked response: 9%

----------
molecular target: HLA A2.1 (Homo sapiens, UniProt P04439, D140Y/D185E/D98H/E176V/E277Q/G131W/G231S/I119V/I121R/I166T/I218V/L300P/L318F/N151K/N90K/P208A/P217A/Q86G/Q94H/R138H/R169H/T345S); test: T2 cell stabilization assay; format: binding; details: peptide tested 0.1 μM-100 μM; flow cytometry with BB7.2; (n.s.) = not stable
value-kind: Minimum Concentration of Peptide to Stabilize A2 on T2 cells

Exam item: Find the recorded Minimum Concentration of Peptide to Stabilize A2 on T2 cells belonging to KELRESSLL [AFP16, residues 211-219 of hAFP] and report it.
Marked response: (n.s.)

Exam item: Find the recorded Minimum Concentration of Peptide to Stabilize A2 on T2 cells belonging to FVQEATYKF [AFP8, residues 54-62 of hAFP] and report it.
Marked response: (n.s.)

Exam item: Find the recorded Minimum Concentration of Peptide to Stabilize A2 on T2 cells belonging to ILLWAARYD [AFP18, residues 178-186 of hAFP] and report it.
Marked response: (n.s.)
